target: Alpha-glucosidase (Aspergillus niger); assay: Inhibition of Aspergillus niger alpha-glucosidase at 1000 uM
MEASURE: inhibition (%)
Numeric answer only, unit % assumed.

Example cases with answers are listed next.
CC[C@@H]1N[C@H](CC)[C@H](O)[C@@H](O)[C@@H]1O: 0
CC[C@H]1N[C@@H](CO)[C@@H](O)[C@H](O)[C@H]1O: 0
CC[C@H]1NC[C@@H](O)[C@@H](O)[C@H](O)[C@H]1O: 0
CC[C@@H]1N[C@@H](CO)[C@@H](O)[C@H](O)[C@H]1O: 6.1
CCC[C@@H]1N[C@@H](CO)[C@@H](O)[C@H](O)[C@H]1O: 1.4

Now, please, on to the next molecule.
molecule CC[C@@H]1NC[C@@H](O)[C@@H](O)[C@H](O)[C@H]1O , inhibition observed: 0.2

###

test system: Aspergillus niger; assay: Inhibition of Aspergillus niger amyloglucosidase at 1000 uM
MEASURE: inhibition (%)
Numeric answer only, unit % assumed.

Example cases with answers are listed next.
CCC[C@@H]1NC[C@@H](O)[C@@H](O)[C@H](O)[C@H]1O: 0
CC[C@@H]1N[C@@H](CO)[C@@H](O)[C@H](O)[C@H]1O: 0
CC[C@@H]1NC[C@@H](O)[C@@H](O)[C@H](O)[C@H]1O: 0
CC[C@H]1N[C@@H](CO)[C@@H](O)[C@H](O)[C@H]1O: 1.9
CC[C@H]1NC[C@@H](O)[C@@H](O)[C@H](O)[C@H]1O: 0.8

compound CC[C@@H]1N[C@H](CC)[C@H](O)[C@@H](O)[C@@H]1O , inhibition observed: 4.1

compound CCC[C@@H]1N[C@@H](CO)[C@@H](O)[C@H](O)[C@H]1O , inhibition observed: 0

###

Reported inhibition by item:
tested on: Prunus dulcis; test: Inhibition of almond beta-glucosidase at 1000 uM
Numeric answer only, unit % assumed.

CC[C@@H]1N[C@@H](CO)[C@@H](O)[C@H](O)[C@H]1O: 33.5
CC[C@@H]1N[C@H](CC)[C@H](O)[C@@H](O)[C@@H]1O: 21.4
CC[C@H]1N[C@@H](CO)[C@@H](O)[C@H](O)[C@H]1O: 16.9
CCC[C@@H]1NC[C@@H](O)[C@@H](O)[C@H](O)[C@H]1O: 0
CCC[C@@H]1N[C@@H](CO)[C@@H](O)[C@H](O)[C@H]1O: 42.6
CC[C@H]1NC[C@@H](O)[C@@H](O)[C@H](O)[C@H]1O: 5.1

Now, please, on to the next molecule.
molecule CC[C@@H]1NC[C@@H](O)[C@@H](O)[C@H](O)[C@H]1O , inhibition observed: 48.7

###

molecular target: Beta-glucuronidase (Bos taurus); assay: Inhibition of bovine liver beta-glucuronidase at 1000 uM
MEASURE: inhibition (%)
Numeric answer only, unit % assumed.

Example cases with answers are listed next.
CC[C@@H]1N[C@@H](CO)[C@@H](O)[C@H](O)[C@H]1O: 0.8
CC[C@@H]1N[C@H](CC)[C@H](O)[C@@H](O)[C@@H]1O: 0.5
CC[C@@H]1NC[C@@H](O)[C@@H](O)[C@H](O)[C@H]1O: 0.1
CC[C@H]1N[C@@H](CO)[C@@H](O)[C@H](O)[C@H]1O: 0
CC[C@H]1NC[C@@H](O)[C@@H](O)[C@H](O)[C@H]1O: 0.1

Now, please, on to the next compound.
compound CCC[C@@H]1N[C@@H](CO)[C@@H](O)[C@H](O)[C@H]1O , inhibition observed: 0
